System: ICAM-1
Protocol notes: CAM ELISA: ICAM-1 expression on TNF-stimulated HUVECs
Type: cell-based
Measurement setup: Homo sapiens, Endothelial cell, 1 μM compound; primary human umbilical vein endothelial cells; compound 24 hours, then TNF 5 ng/mL 6 hours
Assay metric: inhibition at 1 µM (%)

> print(dat)
                     structure.smiles.string  endpoint.value
 1  NC(=O)c1cc2c(Oc3cccc(C(F)(F)F)c3)cncc2s1              56
 2   Nc1nnc(-c2cc3c(Oc4ccc(Cl)cc4)cncc3s2)o1              72
 3  CNC(=O)c1cc2c(Oc3ccc(-c4cncn4C)cc3)cncc2s1              55
 4         Cc1ccc(Sc2ccnc3cc(C(N)=O)sc23)cc1              22
 5  NC(=O)CNC(=O)c1cc2c(Oc3ccc(Br)cc3)cncc2s1              58
 6  CNC(=O)c1cc2c(Oc3ccc(-c4cccs4)cc3)cncc2s1              42
 7    CN(C)C(=O)c1cc2c(Oc3ccc(Cl)cc3)cncc2s1              72
 8            NC(=O)c1cc2c(Sc3ccccn3)cncc2s1              46
 9       N#Cc1ccc(Oc2cncc3sc(C(N)=O)cc23)cc1              72
10   Nc1nc(-c2cc3c(Oc4ccc(Cl)cc4)cncc3s2)no1              62
11   Nc1noc(-c2cc3c(Oc4ccc(Cl)cc4)cncc3s2)n1              65
12      Clc1ccc(Oc2cncc3sc(-c4ncon4)cc23)cc1              49
13            OCc1cc2c(Oc3ccc(Cl)cc3)cncc2s1              51
14  CN1CCN(C(=O)c2cc3c(Oc4ccc(Cl)cc4)cncc3s2)CC1              48
15         Cc1ccc(Sc2cncc3sc(C(N)=O)cc23)cc1              67
16   Cc1nc(-c2cc3c(Oc4ccc(Cl)cc4)cncc3s2)no1              40
17                  NC(=O)c1sc2cncc(Cl)c2c1N              48
18      CNC(=O)c1sc2cncc(Oc3ccc(Cl)cc3)c2c1C              66
19  CNc1nnc(-c2cc3c(Oc4ccc(Cl)cc4)cncc3s2)s1              64
20    NC(=O)c1cc2c(Oc3ccc(Cl)cc3)cnc(Cl)c2s1              77

###

System: ICAM-1
Protocol notes: CAM ELISA: ICAM-1 expression on TNF-stimulated HUVECs
Assay type: cell-based
Measurement setup: Homo sapiens, Endothelial cell, 1 μM compound; primary human umbilical vein endothelial cells; compound 24 hours, then TNF 5 ng/mL 6 hours
Decision: inhibition at 1 µM compared against 60%; not below it gives Y, below it gives N.

> print(dat)
                    structure.smiles.string  class
1  NC(=O)c1cc2c(Oc3ccc(-n4ccnc4)cc3)cncc2s1      Y
2  NC(=O)c1cc2c(-c3ccc(C(F)(F)F)cc3)cncc2s1      Y
3       NC(=NO)c1cc2c(Oc3ccc(Cl)cc3)cncc2s1      Y
4   Nc1csc(-c2cc3c(Oc4ccc(Cl)cc4)cncc3s2)n1      N

Data provenance is patent US6579882B2.
